Each recorded value in this set is attributed to patent US20230095569A1.

Biological target: Rhesus monkey Claudine18.2 (Rhesus monkey) (UniProt F6YQY3)
Test: FACS on CHOK1-rh18.2 cells
OBSERVED PROPERTY: FACS MFI

>>> measured_result("Ab02 (antibody, V domains shown) VH: QVQLKESGPGLVAPSQSLSITCTVSGFSLTSYAINWVRQPPGKGLEWLGVIWTGGGTNYNSALKSRLSINKDNSKSQVFLKMNSLQTDDTARYYCARFYDGYYSWFAYWGQGTLVTVSA VL: DIVMTQSHKFMSTSVGDRVSITCKASQDVGTAVTWYQQKPGQSPKLLIYWASTRHTGVPDRFTGSGSGTDFTLTISNVQSEDLADYFCQQYSSYPFTFGSGTKLEIK")
1400
>>> measured_result("Ab26 (antibody, V domains shown) VH: EVMLVESGGGLVKPGGSLKLSCTASGFTFRSYTMSWVRQTPEKRLEWVATITGGGGNTYFLDSVKGRFTFSRDNAKNALYLQMNSLRSEDTALYYCARLGQTQRNAMDYWGQGTSVTVSS VL: DIVMTQSPSSLSVSAGEKVTMSCKSSQSLLNSGNQMNYLAWYQQKPGQPPKLLIYGASTRESGVPDRFTGSGSGTDFTLTISSVQAEDLAIYYCQNDHTYPLTFGAGTKLEL")
8290
>>> measured_result("Ab22 (antibody, V domains shown) VH: EVMLVESGGGLVKPGGSLKLSCAASGFTFSSYTMSWVRQTPEKRLEWVATIIGGYGNTYYADSVKGRFTISRDSAKNTLYLQMISLRSEDTALYYCTRLGQTQRNAMDYWGQGTSVTVSS VL: DILMTQSPSSLSVSAGEKVTMSCKSSQSLLNSGNQKNYLAWYQQKPGQPPKLLIYGASTRESGVPDTFTGSGSGTDFTLTISSVQAEDLAVYYCQNDYYYPFTFGAGTKLEL")
7330
